details: in sec-butanol, 318.15 K
parameter: solubility (mole fraction)

Query block: # get_value(readout='solubility (mole fraction)', item= "CC1(C)CCC2=C(O1)c1ccccc1C(=O)C2=O" )
Result block: 0.0162

---

conditions: in isopropanol, 298.15 K
parameter: solubility (mole fraction)
The answer should be a number; do not append a unit.

Query block: # input compound: "CC1(C)CCC2=C(O1)c1ccccc1C(=O)C2=O" ; wanted: its solubility (mole fraction)
Result block: 0.00376

---

conditions: in n-propanol, 313.15 K
parameter: solubility (mole fraction)

Query block: So what's the measured solubility (mole fraction) for this one? "CC1(C)CCC2=C(O1)c1ccccc1C(=O)C2=O"
Result block: 0.0146

---

conditions: in sec-butanol, 303.15 K
parameter: solubility (mole fraction)
Respond using a number only.

Query block: Given the compound "CC1(C)CCC2=C(O1)c1ccccc1C(=O)C2=O" , what is its reported solubility (mole fraction)?
Result block: 0.00671

---

conditions: in acetone, 308.15 K
parameter: solubility (mole fraction)
Just the number, please.

Query block: Which solubility (mole fraction) is reported for this compound? "CC1(C)CCC2=C(O1)c1ccccc1C(=O)C2=O"
Result block: 0.0245

---

conditions: in ethanol, 318.15 K
parameter: solubility (mole fraction)
Answer as a number with no unit attached.

Query block: Which solubility (mole fraction) value belongs to "CC1(C)CCC2=C(O1)c1ccccc1C(=O)C2=O" ?
Result block: 0.0134

---

conditions: in water, 308.15 K
parameter: solubility (mole fraction)
No unit in the answer, please; the number alone is enough.

Query block: Need solubility (mole fraction) of "CC1(C)CCC2=C(O1)c1ccccc1C(=O)C2=O" , thanks.
Result block: 4.46e-06

---

settings: in n-propanol, 318.15 K
parameter: solubility (mole fraction)
Could you keep your reply to the number by itself?

Query block: solubility (mole fraction) for "CC1(C)CCC2=C(O1)c1ccccc1C(=O)C2=O" ?
Result block: 0.0203

---

conditions: in water, 303.15 K
parameter: solubility (mole fraction)
Give your answer as a number; write no unit.

Query block: Given the compound "CC1(C)CCC2=C(O1)c1ccccc1C(=O)C2=O" , what is its reported solubility (mole fraction)?
Result block: 3.72e-06

---

settings: in n-butanol, 308.15 K
parameter: solubility (mole fraction)
Form: value (number only, do not type unit).

Query block: // query solubility (mole fraction) value for entry "CC1(C)CCC2=C(O1)c1ccccc1C(=O)C2=O"
Result block: 0.0108

---

conditions: in isopropanol, 303.15 K
parameter: solubility (mole fraction)
# output: bare number, no unit

Query block: Can you look up the measured solubility (mole fraction) of "CC1(C)CCC2=C(O1)c1ccccc1C(=O)C2=O" for me?
Result block: 0.00432

---

conditions: in n-propanol, 308.15 K
parameter: solubility (mole fraction)
Write the value as a bare number.

Query block: Fill in: solubility (mole fraction) of "CC1(C)CCC2=C(O1)c1ccccc1C(=O)C2=O" is ___
Result block: 0.00969

---

details: in propylene glycol, 308.15 K
parameter: solubility (mole fraction)
Give the figure only, with no unit attached.

Query block: Please give the measured solubility (mole fraction) for this compound: "CC1(C)CCC2=C(O1)c1ccccc1C(=O)C2=O"
Result block: 0.0037

---

settings: in water, 298.15 K
parameter: solubility (mole fraction)
Answer with a number only.

Query block: Can you share its solubility (mole fraction)? I mean this molecule: "CC1(C)CCC2=C(O1)c1ccccc1C(=O)C2=O"
Result block: 2.85e-06

---

conditions: in ethyl acetate, 308.15 K
parameter: solubility (mole fraction)
Write the number on its own, no unit after it.

Query block: Recorded solubility (mole fraction) for "CC1(C)CCC2=C(O1)c1ccccc1C(=O)C2=O" , please?
Result block: 0.0104

---

settings: in propylene glycol, 298.15 K
parameter: solubility (mole fraction)
I only need the number, thanks.

Query block: I would be grateful if you could share the reported solubility (mole fraction) for "CC1(C)CCC2=C(O1)c1ccccc1C(=O)C2=O" .
Result block: 0.00306

---

conditions: in n-propanol, 303.15 K
parameter: solubility (mole fraction)

Query block: What does the data say about its solubility (mole fraction)? Entry: "CC1(C)CCC2=C(O1)c1ccccc1C(=O)C2=O"
Result block: 0.00793

---

conditions: in methanol, 318.15 K
parameter: solubility (mole fraction)
No unit in the answer, please; the number alone is enough.

Query block: Request the reported solubility (mole fraction) associated with "CC1(C)CCC2=C(O1)c1ccccc1C(=O)C2=O"
Result block: 0.0153

---

conditions: in acetonitrile, 308.15 K
parameter: solubility (mole fraction)
Lab note: write the figure by itself, no unit.

Query block: Give the measured solubility (mole fraction) of "CC1(C)CCC2=C(O1)c1ccccc1C(=O)C2=O" .
Result block: 0.0227

---

details: in ethyl acetate, 303.15 K
parameter: solubility (mole fraction)
API doc: respond with a numeric literal and nothing else, no unit.

Query block: Can you look up the measured solubility (mole fraction) of "CC1(C)CCC2=C(O1)c1ccccc1C(=O)C2=O" for me?
Result block: 0.00936

---

conditions: in sec-butanol, 298.15 K
parameter: solubility (mole fraction)
Reply with the value as a number alone.

Query block: // returns reported solubility (mole fraction) for input "CC1(C)CCC2=C(O1)c1ccccc1C(=O)C2=O"
Result block: 0.00565

---

settings: in water, 313.15 K
parameter: solubility (mole fraction)
Write the value as a bare number.

Query block: // returns reported solubility (mole fraction) for input "CC1(C)CCC2=C(O1)c1ccccc1C(=O)C2=O"
Result block: 5.26e-06

---

settings: in n-butanol, 298.15 K
parameter: solubility (mole fraction)
Output: the number by itself.

Query block: Any idea what solubility (mole fraction) was measured for "CC1(C)CCC2=C(O1)c1ccccc1C(=O)C2=O" ?
Result block: 0.00743

---

settings: in methanol, 303.15 K
parameter: solubility (mole fraction)

Query block: Name the recorded solubility (mole fraction) for "CC1(C)CCC2=C(O1)c1ccccc1C(=O)C2=O" .
Result block: 0.00654

---

conditions: in ethyl acetate, 318.15 K
parameter: solubility (mole fraction)
Form rule: numeric answer, no unit written next to it.

Query block: Could you tell me which solubility (mole fraction) is on file for "CC1(C)CCC2=C(O1)c1ccccc1C(=O)C2=O" ?
Result block: 0.0165

---

settings: in sec-butanol, 313.15 K
parameter: solubility (mole fraction)
Form: value (number only, do not type unit).

Query block: Which solubility (mole fraction) is listed for "CC1(C)CCC2=C(O1)c1ccccc1C(=O)C2=O" ?
Result block: 0.0104

---

details: in methanol, 298.15 K
parameter: solubility (mole fraction)
Write no unit; give the number alone.

Query block: State the recorded solubility (mole fraction) for this entry: "CC1(C)CCC2=C(O1)c1ccccc1C(=O)C2=O"
Result block: 0.0054
